Tested on: Fibroblast
Assay: Multiplex assay against human fibroblast
Format: toxicity, cell-based
Conditions: 24 h, 10 µM, compound concentration 10 uM, replicate 1
READOUT NAME: Population Mitochondria Different-Phenotype (%)

[[record]]
compound = "CC(F)(F)CN1CCOc2c(nn(-c3ccccc3Cl)c2-c2ccc(Cl)cc2)C1=O"
measured_value = "26%"

[[record]]
compound = "O=c1ccc2ccc(OCCCCN3CCN(c4cccc5sccc45)CC3)cc2[nH]1"
measured_value = "63%"

[[record]]
compound = "COCCCN1CCC(NC(=O)c2cc(Cl)c(N)c3c2OCC3)CC1 [PRUCALOPRIDE]"
measured_value = "6%"

[[record]]
compound = "COc1cc2nc(N3CCN(C(=O)COc4c(OC)cccc4C(C)C)CC3)nc(N)c2cc1OC.Cl.Cl"
measured_value = "17%"

[[record]]
compound = "C[C@H](NC(=O)CNC(=O)c1cccc(Cl)c1)c1ccccc1"
measured_value = "3%"


====

Each entry below lists one item and its recorded Population Mitochondria Different-Phenotype (%) value.
Tested on: U2OS
Assay: Multiplex assay against U2OS
Type: toxicity, cell-based
Settings: human, 48 h, 1 µM, compound concentration 1 uM, replicate 1
READOUT NAME: Population Mitochondria Different-Phenotype (%)

[[record]]
compound = "CN1CCN2c3ccccc3Cc3ccccc3C2C1.Cl (stereo not given) [MIANSERIN HYDROCHLORIDE]"
unit_name = "%"
measured_value = 2

[[record]]
compound = "CN1CCC(C(=O)c2cccc(NC(=O)c3c(F)cc(F)cc3F)n2)CC1"
unit_name = "%"
measured_value = 1

[[record]]
compound = "CCC(=O)OCC(=O)[C@@]1(OC(=O)CC)[C@@H](C)C[C@H]2[C@@H]3CCC4=CC(=O)C=C[C@]4(C)[C@@]3(Cl)[C@@H](O)C[C@@]21C [BECLOMETHASONE DIPROPIONATE]"
unit_name = "%"
measured_value = 2

[[record]]
compound = "CC(C)(C)c1ccc(CSc2cnn(C(C)(C)C)c(=O)c2Cl)cc1 [PYRIDABEN]"
unit_name = "%"
measured_value = 3

[[record]]
compound = "O=C(Nc1cc(-c2ccccc2)nn1-c1ccccc1F)c1ccc([N+](=O)[O-])cc1"
unit_name = "%"
measured_value = 5


====

Test system: U2OS
Assay: Multiplex assay against U2OS
Assay type: toxicity, cell-based
Details: human, 48 h, 10 µM, compound concentration 10 uM, replicate 1
Assign class by Population Mitochondria Different-Phenotype (%): not lower than 2% means Y; lower than 2% means N.

[[record]]
compound = "COc1c(Nc2ccc(S(C)(=O)=O)nc2C)ncnc1OC1CCN(C(=O)OC(C)C)CC1 [ADP-597]"
label_class = "Y"

[[record]]
compound = "O=c1ccc2ccc(OCCCCN3CCN(c4cccc5sccc45)CC3)cc2[nH]1 [BREXPIPRAZOLE]"
label_class = "Y"

[[record]]
compound = "COc1ccc2[nH]c(I)c(CCNC(C)=O)c2c1 [IODOMELATONIN]"
label_class = "N"

[[record]]
compound = "Cn1cc(C(=O)OCC2CCN(CCNS(C)(=O)=O)CC2)c2ccccc21"
label_class = "Y"

[[record]]
compound = "Nc1nc(-c2ccco2)c2cnn(Cc3ccccc3F)c2n1"
label_class = "Y"

[[record]]
compound = "COc1cc2nc(N3CCN(C(=O)COc4c(OC)cccc4C(C)C)CC3)nc(N)c2cc1OC.Cl.Cl"
label_class = "Y"

[[record]]
compound = "O=c1nc2[nH]c3ccccc3nc-2c(=O)[nH]1 [ALLOXAZINE]"
label_class = "N"


====

Each entry below lists one item and its recorded Population Pyknosed Nuclei (%) value.
System: HEK-293T
Test: Multiplex assay against HEK293T
Format: toxicity, cell-based
Conditions: human, 48 h, 10 µM, compound concentration 10 uM, replicate 1
READOUT NAME: Population Pyknosed Nuclei (%)

[[record]]
compound = "CCC(=O)OCC(=O)[C@@]1(OC(=O)CC)[C@@H](C)C[C@H]2[C@@H]3CCC4=CC(=O)C=C[C@]4(C)[C@@]3(Cl)[C@@H](O)C[C@@]21C [BECLOMETHASONE DIPROPIONATE]"
measured_value = "13%"

[[record]]
compound = "CC(C)(O)C(=O)N1CCN(c2ccc(C(F)(F)F)c(C3=C(c4c[nH]c5ccccc45)C(=O)NC3=O)c2)CC1"
measured_value = "19%"

[[record]]
compound = "COc1cc2nc(N3CCN(C(=O)c4ccco4)CC3)nc(N)c2cc1OC.Cl [PRAZOSIN HYDROCHLORIDE]"
measured_value = "7%"

[[record]]
compound = "CSc1nc(NC2CCCC2)c([N+](=O)[O-])c(NC2CCCC2)n1"
measured_value = "7%"

[[record]]
compound = "CN1C[C@H](C(=O)N[C@]2(C)O[C@@]3(O)[C@@H]4CCCN4C(=O)[C@H](Cc4ccccc4)N3C2=O)C[C@@H]2c3cccc4[nH]cc(c34)C[C@H]21.CS(=O)(=O)O [DIHYDROERGOTAMINE MESYLATE]"
measured_value = "7%"

[[record]]
compound = "S=C(NCCCc1c[nH]cn1)NCCCN(Cc1ccc(Cl)c(Cl)c1)c1ccc(Br)cn1"
measured_value = "52%"

[[record]]
compound = "OCCCNc1cc(-c2ccnc(Nc3cccc(Cl)c3)n2)ccn1"
measured_value = "37%"

[[record]]
compound = "COC(c1ccccc1)(c1ccccc1)[C@H](Oc1nc(C)cc(C)n1)C(=O)O"
measured_value = "8%"


====

System: HEK-293T
Test: Multiplex assay against HEK293T
Type: toxicity, cell-based
Settings: human, 24 h, 1 µM, compound concentration 1 uM, replicate 1
Population Mitotic Cells (%) strictly under 70% means Yes; at 70% or over means No.

[[record]]
compound = "CCCCC[C@H](O)/C=C/[C@H]1[C@H](O)CC(=O)[C@@H]1CCCCCCC(=O)O"
label_class = "Yes"

[[record]]
compound = "O=c1ccc2ccc(OCCCCN3CCN(c4cccc5sccc45)CC3)cc2[nH]1"
label_class = "Yes"

[[record]]
compound = "COc1ccc2c(c1OCc1ccccc1)C[C@@H](C(=O)O)N(C(=O)C(c1ccccc1)c1ccccc1)C2"
label_class = "Yes"

[[record]]
compound = "CCCCCCNC(=O)Nc1ccc(S(=O)(=O)Nc2ccc(CCNC[C@H](O)COc3ccc(O)cc3)cc2)cc1"
label_class = "No"

[[record]]
compound = "COc1cc(Nc2ncc3c(n2)-c2ccc(Cl)cc2C(c2c(F)cccc2OC)=NC3)ccc1C(=O)O"
label_class = "Yes"

[[record]]
compound = "O=C(O)CCC/C=C\\CC1C(O)CC(O)C1/C=C/C(O)COc1cccc(Cl)c1 (configuration not stated)"
label_class = "No"

[[record]]
compound = "COC(c1ccccc1)(c1ccccc1)[C@H](Oc1nc(C)cc(C)n1)C(=O)O"
label_class = "Yes"

[[record]]
compound = "COc1ccc2[nH]c(I)c(CCNC(C)=O)c2c1"
label_class = "Yes"

[[record]]
compound = "CC(C)(O)C(=O)N1CCN(c2ccc(C(F)(F)F)c(C3=C(c4c[nH]c5ccccc45)C(=O)NC3=O)c2)CC1"
label_class = "Yes"

[[record]]
compound = "Cl.Cl.OCCOCCN1CCN(C(c2ccccc2)c2ccc(Cl)cc2)CC1 (configuration not stated) [HYDROXYZINE HYDROCHLORIDE]"
label_class = "No"

[[record]]
compound = "O=C(NCCNCC(O)COc1ccc(O)cc1)N1CCOCC1.O=C(NCCNCC(O)COc1ccc(O)cc1)N1CCOCC1.O=C(O)/C=C/C(=O)O (configuration not stated) [XAMOTEROL FUMARATE]"
label_class = "No"

[[record]]
compound = "C[C@@H]1CC(=O)Nc2cccc(-c3ccc4c(c3)c(-c3cnn(C)c3)nn4C)c2N1"
label_class = "Yes"


====

System: U2OS
Test: Multiplex assay against U2OS
Type: toxicity, cell-based
Conditions: human, 24 h, 10 µM, compound concentration 10 uM, replicate 1
READOUT NAME: Total Cell Count

[[record]]
compound = "CC(C)(O)C(=O)N1CCN(c2ccc(C(F)(F)F)c(C3=C(c4c[nH]c5ccccc45)C(=O)NC3=O)c2)CC1"
measured_value = 172

[[record]]
compound = "CCCCC[C@H](O)/C=C/[C@H]1[C@H](O)CC(=O)[C@@H]1CCCCCCC(=O)O [ALPROSTADIL]"
measured_value = 271

[[record]]
compound = "Cc1cc(NC(=O)NCCN2CCC(O)(Cc3ccccc3)CC2)c2ccccc2n1 [PALOSURAN]"
measured_value = 297

[[record]]
compound = "COCCn1c(C)c(C)s/c1=N\\C(=O)C1C(C)(C)C1(C)C"
measured_value = 257

[[record]]
compound = "Cc1cc(O)c(-c2ccc([C@@H](C)CN(C)C)cc2)c2c1[nH]c(=O)c1sccc12"
measured_value = 210

[[record]]
compound = "O=C(Nc1cc(-c2ccccc2)nn1-c1ccccc1F)c1ccc([N+](=O)[O-])cc1"
measured_value = 353

[[record]]
compound = "CN1CCN2c3ccccc3Cc3ccccc3C2C1.Cl (stereo unspecified) [MIANSERIN HYDROCHLORIDE]"
measured_value = 319

[[record]]
compound = "Cc1sc2c(c1C)C(c1ccc(Cl)cc1)=N[C@H](CC(=O)OC(C)(C)C)c1nnc(C)n1-2"
measured_value = 280

[[record]]
compound = "O=c1nc2[nH]c3ccccc3nc-2c(=O)[nH]1 [ALLOXAZINE]"
measured_value = 237

[[record]]
compound = "COc1cc(OC2CCN(C(C)=O)CC2)ccc1C(=O)N1CCC(N2C(=O)OCc3ccccc32)CC1"
measured_value = 250

[[record]]
compound = "Cc1cc(=O)n(C)c2cc(N3C(=O)CC[C@H](NS(=O)(=O)CC(C)C)[C@H]3c3ccc(Cl)cc3)ccc12"
measured_value = 262

